Each item that follows carries a reported TGI.
System: NCI/ADR-RES ovarian
measurement.notes: NCI tumour cell line growth inhibition, 48 h

Sample records with TGI:
COc1ccc(C2(CC(C)C)CCNC2)cc1OC (stereo unspecified); > 100 µM
COc1ccc(Nc2ncc(I)c(NCCCNC(=O)C3CCC3)n2)cc1; > 100 µM
C[C@]12CC[C@H]3[C@@H](CC=C4C[C@@H](O)CC[C@@]43C)[C@@H]1C/C(=C\c1ccncc1)[C@@H]2O; 67.7 µM

Problem: Give the observed TGI of CCCCN(CCCC)P(=O)(Oc1ccccc1)Oc1ccccc1 for NCI/ADR-RES ovarian.
Solution: 18.7 µM

Problem: Give the observed TGI of CC(=O)OCC1OC(SC2=N/C(=C\c3ccc(Br)s3)C(=O)N2c2ccccc2)C(OC(C)=O)C(OC(C)=O)C1OC(C)=O (stereo unspecified) for NCI/ADR-RES ovarian.
Solution: > 100 µM

Problem: Give the observed TGI of COC(=O)CN(CC(=O)NCCNC(=O)OC(C)(C)C)C1CCCCC1N(CC(=O)OC)CC(=O)OC (stereo unspecified) for NCI/ADR-RES ovarian.
Solution: > 100 µM

Problem: Give the observed TGI of O=C1OC2(c3ccc(O)cc3Oc3cc(O)ccc32)c2cccc3cccc1c23 for NCI/ADR-RES ovarian.
Solution: > 100 µM

Problem: Give the observed TGI of Cc1cccc(N=Nc2c(C)nn(C(=O)CC(=O)Nc3ccc(Cl)cc3)c2C)c1 for NCI/ADR-RES ovarian.
Solution: > 100 µM

Problem: Give the observed TGI of Cc1[nH]c(C(=O)Nc2ccc(C(=O)NCCN)cc2OC(C)C)c(Cl)c1Cl for NCI/ADR-RES ovarian.
Solution: 22.6 µM

Problem: Give the observed TGI of CCOC(=O)c1cc(=O)c2cccc3c2n1CCS3 for NCI/ADR-RES ovarian.
Solution: > 100 µM

Problem: Give the observed TGI of O=C1c2cc3c(cc2CC12Cc1ccccc1C2)CCC3 for NCI/ADR-RES ovarian.
Solution: 76.8 µM

Problem: Give the observed TGI of CCOC(=O)Cc1csc(NC(=O)C(OC(=O)c2ccc(Cl)cc2)c2ccccc2)n1 (stereo unspecified) for NCI/ADR-RES ovarian.
Solution: > 100 µM

Problem: Give the observed TGI of Nc1nc(-c2cccnc2)cc(-c2cc(-c3cccnc3)nc(N)n2)n1 for NCI/ADR-RES ovarian.
Solution: > 100 µM

Problem: Give the observed TGI of CN(C)c1ccc(N=C2N=C(Nc3ccccc3)C(=Nc3ccccc3)S2)cc1 for NCI/ADR-RES ovarian.
Solution: > 100 µM

* * *

Each item that follows carries a reported TGI.
Test system: T-47D breast
measurement.notes: NCI tumour cell line growth inhibition, 48 h

Sample records with TGI:
Cc1cccc2c(N)c3cccc(C(=O)NCC[N+](C)(C)Cc4ccccc4[N+](=O)[O-])c3nc12; > 100 µM
CC(C)[C@@]12C[C@@H](OC(=O)C3CO3)[C@@](C)(O1)[C@@H]1CC[C@@H](C)[C@H]1[C@@H]2OC(=O)/C=C/c1ccccc1 (stereo partly drawn); > 100 µM
O=C(N/C(=C\c1ccccc1)c1nc2ccccc2c(=O)o1)c1ccccc1; > 100 µM
CCNCC(=O)Nc1ccc2c(c1)C(=O)c1ccc(NC(=O)CNCC)cc1C2=O; 17.1 µM
COc1cccc(/C=C2\CCC(CN(C)C)C2=O)c1 (stereo not drawn); 16.6 µM

Consider the record given below.
Problem: # return recorded TGI for entry COC(=O)CN(CC(=O)NCCNC(=O)OC(C)(C)C)C1CCCCC1N(CC(=O)OC)CC(=O)OC (stereo not drawn)
Solution: > 100 µM

* * *

Test system: EKVX NSCLC
measurement.notes: NCI tumour cell line growth inhibition, 48 h
property.name: TGI

O=C1/C(=C/c2ccccc2Cl)COc2ccc(Br)cc21; > 100 µM
CC(=O)NC(CCCCNCc1ccccc1)C(=O)NCc1ccccc1 (stereo not given); > 100 µM

Consider the record given below.
Problem: # return recorded TGI for entry COc1cc2c(/C=C3\C(=O)N(C)c4ccccc43)c[nH]c2cc1C
Solution: > 100 µM

* * *

Tested on: PC-3 prostate
measurement.notes: NCI tumour cell line growth inhibition, 48 h
property.name: TGI

Sample records with TGI:
Cc1cccc(N=Nc2c(C)nn(C(=O)CC(=O)Nc3ccc(Cl)cc3)c2C)c1; > 100 µM
CC(=O)C1C(=O)C(=O)N(c2ccc([N+](=O)[O-])cc2[N+](=O)[O-])C1=O (stereo unspecified); > 100 µM
CCOC(=O)C(=[N+]=[N-])C(=O)CSC#N; > 100 µM
C[N+]1(C(CO)Cc2c[nH]c3ccccc23)Cc2ccccc2C1 (stereo unspecified); > 100 µM
CCCCCCCCCCC/C=C(/C(=O)CCCO[Si](C)(C)C(C)(C)C)C(=O)OC; > 100 µM

Problem: # return recorded TGI for entry O=C1OC2(c3ccc(O)cc3Oc3cc(O)ccc32)c2cccc3cccc1c23
Solution: > 100 µM

* * *

Each item that follows carries a reported TGI.
System: LOX IMVI melanoma
measurement.notes: NCI tumour cell line growth inhibition, 48 h

Sample records with TGI:
CN(C)c1ccc(N=C2N=C(Nc3ccccc3)C(=Nc3ccccc3)S2)cc1; > 100 µM
Nc1nc(Sc2ccc([N+](=O)[O-])c3nonc23)c2ncn(C3OC(CO)C(O)C3O)c2n1 (stereo not given); 2.76 µM
COC(=O)[C@H](Cc1cn(C)cn1)NC(=O)[C@H](CC(C)C)NC(=O)Nc1cc(C(F)(F)F)cc(C(F)(F)F)c1; > 10 µM
O=C(COc1ccccc1)NNc1ccccc1; > 300 µM
COc1ccc(/C=C/c2onc3c(=O)n(C)nc(-c4ccccc4)c23)cc1; > 100 µM
C[n+]1c2ccccc2c(N=[N+]=[N-])c2ccccc21; 7.63 µM
O=C1NC(=O)C(CCC(=O)c2cccc3ccccc23)C(=O)N1; > 100 µM
O=C(CCN1CCCCC1)Nc1ccc2c(c1)C(=O)c1ccc(NC(=O)CCN3CCCCC3)cc1C2=O; 3.43 µM
NC(=O)c1ncn(C2C=CC(CP(=O)(O)O)C2)c1N (stereo not given); > 100 µM
COc1ccccc1NC1Oc2cc3c(cc2C(c2cc(OC)c(OC)c(OC)c2)C1C)OCO3 (stereo not given); > 100 µM

Problem: # return recorded TGI for entry COC(=O)CCc1n(Cc2ccc3ccccc3c2)c2ccccc2[n+]1Cc1ccc2ccccc2c1
Solution: 1.93 µM

Problem: # return recorded TGI for entry CC(=O)NC1=NC(=O)/C(=C/c2ccccc2Cl)N1C
Solution: > 100 µM

Problem: # return recorded TGI for entry CCCCCCCCCCC/C=C(/C(=O)CCCO[Si](C)(C)C(C)(C)C)C(=O)OC
Solution: > 100 µM

Problem: # return recorded TGI for entry C[C@@H]1CC[C@@]2(C)OC(c3ccccc3)[C@H](CO)N2C1=O (stereo not given in full)
Solution: > 100 µM

* * *

Test system: NCI-H23 lung
measurement.notes: NCI tumour cell line growth inhibition, 48 h
property.name: TGI (µM)
The answer is to be given in µM; state only the numeric part.

Cc1cc(-c2nc3sc(C)cn3c2/C=N/N=C(N)N)c(C)s1; 28.2

Problem: # return recorded TGI for entry CCCCN(CCCC)P(=O)(Oc1ccccc1)Oc1ccccc1
Solution: 17.7

Problem: # return recorded TGI for entry CCCCCCCCCCCCCCCCn1cc[n+](C)c1
Solution: 1.87

Problem: # return recorded TGI for entry CCNCC(=O)Nc1ccc2c(c1)C(=O)c1ccc(NC(=O)CNCC)cc1C2=O
Solution: 14.8

* * *

Test system: HS 578T breast
measurement.notes: NCI tumour cell line growth inhibition, 48 h
Each item that follows carries a reported TGI.

Sample records with TGI:
Brc1ccc(-c2[nH]c3ccccc3c2/C=N\Nc2ccc(-c3nc4ccccc4[nH]3)cc2)cc1; < 0.01 µM
CCOC(=O)c1cc(=O)c2cccc3c2n1CCS3; > 100 µM

Consider the record given below.
Problem: # return recorded TGI for entry CCOC(=O)c1ccc(N2NC(=O)/C(=C/c3ccc([N+](=O)[O-])o3)C2=O)cc1
Solution: > 75.1 µM

* * *

Test system: UACC-257 melanoma
measurement.notes: NCI tumour cell line growth inhibition, 48 h
Each item that follows carries a reported TGI.

Sample records with TGI:
O=S(=O)(c1ccccc1)C1CC(c2nc3ccccc3[nH]2)=NO1 (centres undefined); > 100 µM
Cc1ccc(/C(=N/NS(=O)(=O)c2cc(C)c(Cl)cc2Cl)Sc2cc(Cl)c(C)cc2S(N)(=O)=O)cc1; > 100 µM
C[N+]1(C(CO)Cc2c[nH]c3ccccc23)Cc2ccccc2C1 (centres undefined); > 100 µM
Cn1c(=O)c2c(nc3n2CCCC(=O)N3CCCCl)n(C)c1=O; > 100 µM
O=S(O)O.O=S(O)O.[Co].[NH2-].[NH2-].[NH2-].[NH2-]; > 100 µM

Problem: # return recorded TGI for entry Cc1nc2ccc(Cl)cc2c2c1CCN2c1ccc(F)cc1
Solution: 49.6 µM

Problem: # return recorded TGI for entry NC(=O)N/N=C(\CC1OC(=O)c2ccccc21)c1ccc([N+](=O)[O-])cc1 (centres undefined)
Solution: > 100 µM

Problem: # return recorded TGI for entry N#CC(NNC(=O)Cc1ccccc1)c1ccc([N+](=O)[O-])cc1 (centres undefined)
Solution: > 100 µM

Problem: # return recorded TGI for entry Cc1ccc(-c2cc(C(=O)Nc3ccc(S(=O)(=O)N4CCCCC4)cc3)[nH]n2)c(O)c1
Solution: > 100 µM

Problem: # return recorded TGI for entry Cc1cc(-c2nc3sc(C)cn3c2/C=N/N=C(N)N)c(C)s1
Solution: 44.2 µM
